Assay: Stability of analytes in whole blood samples
Type: in vitro ADME, rat
Details: Bench top (4 hours, room temperature), high concentration 190–320 ng/ml (1 µM), n = 6
measuredAttribute: Stability Bias (%)

| molecule | unitsSymbol | dataValue |
| --- | --- | --- |
| CN1[C@H]2CC[C@@H]1[C@@H](C(=O)O)[C@@H](OC(=O)c1ccccc1)C2 | % | 1.7 |
| COC(=O)[C@H]1[C@@H](OC(=O)c2ccccc2)C[C@@H]2CC[C@H]1N2 | % | 0.6 |
| CCOC(=O)[C@H]1[C@@H](O)C[C@@H]2CC[C@H]1N2 | % | 3.7 |
| CCOC(=O)[C@H]1[C@@H](OC(=O)c2ccccc2)C[C@@H]2CC[C@H]1N2 | % | −2.2 |
| CCOC(=O)[C@@H]1[C@H]2CC[C@@H](C[C@@H]1O)N2C | % | 6.8 |
| COC(=O)[C@H]1[C@@H](OC(=O)c2ccccc2)C[C@@H]2CC[C@H]1N2C | % | −6.7 |
| COC(=O)[C@@H]1[C@H]2CC[C@@H](C[C@@H]1O)N2C | % | 0.3 |
| COC(=O)[C@H]1[C@@H](O)C[C@@H]2CC[C@H]1N2 | % | −2.2 |
| CCOC(=O)[C@@H]1C2CCC(C[C@@H]1OC(=O)c1ccccc1)N2C (stereo partly drawn) | % | 0.2 |

----------
Assay: Stability of analytes in whole blood samples
Type: in vitro ADME, rat
Conditions: Long-term (−70°C, 4 months), medium concentration 95–160 ng/ml (0.5 µM), n = 6

| molecule | Stability Bias (%) |
| --- | --- |
| COC(=O)[C@H]1[C@@H](OC(=O)c2ccccc2)C[C@@H]2CC[C@H]1N2C | 3.1 |
| COC(=O)[C@H]1[C@@H](O)C[C@@H]2CC[C@H]1N2 | −1.7 |
| CCOC(=O)[C@H]1[C@@H](O)C[C@@H]2CC[C@H]1N2 | −0.2 |
| CN1[C@H]2CC[C@@H]1[C@@H](C(=O)O)[C@@H](OC(=O)c1ccccc1)C2 | 2.2 |
| CCOC(=O)[C@@H]1C2CCC(C[C@@H]1OC(=O)c1ccccc1)N2C (stereo partly drawn) | −1.8 |
| COC(=O)[C@H]1[C@@H](OC(=O)c2ccccc2)C[C@@H]2CC[C@H]1N2 | 2.2 |
| COC(=O)[C@@H]1[C@H]2CC[C@@H](C[C@@H]1O)N2C | 6.3 |
| CCOC(=O)[C@@H]1[C@H]2CC[C@@H](C[C@@H]1O)N2C | −5.2 |
| CCOC(=O)[C@H]1[C@@H](OC(=O)c2ccccc2)C[C@@H]2CC[C@H]1N2 | −1.3 |

----------
Assay: Stability of analytes in whole blood samples
Assay type: in vitro ADME, rat
Details: Long-term (−70°C, 4 months), low concentration 1.9–3.2 ng/ml (0.01 µM), n = 6
Stability Bias (%) values by entry

| compound | Stability Bias (%) |
| --- | --- |
| CCOC(=O)[C@@H]1[C@H]2CC[C@@H](C[C@@H]1O)N2C | −2.2 |
| CCOC(=O)[C@H]1[C@@H](O)C[C@@H]2CC[C@H]1N2 | −1.3 |
| COC(=O)[C@@H]1[C@H]2CC[C@@H](C[C@@H]1O)N2C | −3.1 |
| COC(=O)[C@H]1[C@@H](OC(=O)c2ccccc2)C[C@@H]2CC[C@H]1N2 | −2.9 |
| CN1[C@H]2CC[C@@H]1[C@@H](C(=O)O)[C@@H](OC(=O)c1ccccc1)C2 | −1.4 |
| COC(=O)[C@H]1[C@@H](OC(=O)c2ccccc2)C[C@@H]2CC[C@H]1N2C | −0.4 |
| COC(=O)[C@H]1[C@@H](O)C[C@@H]2CC[C@H]1N2 | −13.0 |
| CCOC(=O)[C@@H]1C2CCC(C[C@@H]1OC(=O)c1ccccc1)N2C (stereo partly drawn) | 3.7 |
| CCOC(=O)[C@H]1[C@@H](OC(=O)c2ccccc2)C[C@@H]2CC[C@H]1N2 | −1.0 |
